- System: Mycobacteroides abscessus
- run description: Antimycobacterial activity against Mycobacterium abscessus ATCC 19977 assessed as reduction in bacterial growth by microplate Alamar blue assay
- Type: functional
Note to self: MIC under 2 µM means 1 (yes), ties and anything higher get 0 (no).

Solved entries (count: 4):
| molecule | discrete label |
| --- | --- |
| C/C=C/C[C@@H]1NC(=O)[C@H](CC(C)C)N2C=C(C)C[C@@H](C2=O)N(C)C(=O)[C@H](C)NC(=O)[C@H](Cc2ccc(O)c([N+](=O)[O-])c2)NC(=O)[C@H](CC(C)C)N(C)C(=O)[C@H](Cc2cn(C(C)(C)[C@H](O)CBr)c3ccccc23)NC1=O | 1 (yes) |
| NNC(=O)c1ccncc1 | 0 (no) |
| C/C=C/C[C@@H]1NC(=O)[C@H](CC(C)C)N2C(=O)[C@H](C[C@@H](C)[C@H]2OCCCC)N(C)C(=O)[C@H](C)NC(=O)[C@H](Cc2ccc(O)c([N+](=O)[O-])c2)NC(=O)[C@H](CC(C)C)N(C)C(=O)[C@H](Cc2cn(C(C)(C)[C@H](O)CCl)c3ccccc23)NC1=O | 0 (no) |
| C/C=C/C[C@@H]1NC(=O)[C@H](CC(C)C)N2C(=O)[C@H](CC(C)[C@H]2OC)N(C)C(=O)[C@H](C)NC(=O)[C@H](Cc2ccc(O)c([N+](=O)[O-])c2)NC(=O)[C@H](CC(C)C)N(C)C(=O)[C@H](Cc2cn(C(C)(C)[C@H]3CO3)c3ccccc23)NC1=O (stereo not given in full) | 1 (yes) |

## Task Consider C/C=C/C[C@@H]1NC(=O)[C@H](CC(C)C)N2C(=O)[C@H](CC(C)[C@H]2OC(C)=O)N(C)C(=O)[C@H](C)NC(=O)[C@H](Cc2ccc(OC(C)=O)c([N+](=O)[O-])c2)NC(=O)[C@H](CC(C)C)N(C)C(=O)[C@H](Cc2cn(C(C)(C)[C@H]3CO3)c3ccccc23)NC1=O (stereo not given in full) . Does its MIC lie strictly below 2 µM?
## Result 1 (yes)

## Task Take the molecule C/C=C/C[C@@H]1NC(=O)[C@H](CC(C)C)N2C(=O)[C@H](CC(C)[C@H]2OC)N(C)C(=O)[C@H](C)NC(=O)[C@H](Cc2ccc(O)c([N+](=O)[O-])c2)NC(=O)[C@H](CC(C)C)N(C)C(=O)[C@H](Cc2cn(C(C)(C)[C@H](O)CCl)c3ccccc23)NC1=O (stereo not given in full) and say whether its MIC is less than 2 µM.
## Result 1 (yes)

## Task Is MIC strictly under 2 µM for the entry `CO[C@H]1/C=C/O[C@@]2(C)Oc3c(C)c(O)c4c(O)c(c(/C=N/N5CCN(C)CC5)c(O)c4c3C2=O)NC(=O)/C(C)=C\C=C\[C@H](C)[C@H](O)[C@@H](C)[C@@H](O)[C@@H](C)[C@H](OC(C)=O)[C@@H]1C` ?
## Result 0 (no)

## Task Is MIC strictly under 2 µM for the entry `C/C=C/C[C@@H]1NC(=O)[C@H](CC(C)C)N2C=C(C)C[C@@H](C2=O)N(C)C(=O)[C@H](C)NC(=O)[C@H](Cc2ccc3ocnc3c2)NC(=O)[C@H](CC(C)C)N(C)C(=O)[C@H](Cc2cn(C(C)(C)[C@H](O)CCl)c3ccccc23)NC1=O` ?
## Result 0 (no)

## Task Lab note: MIC threshold 2 µM. Does this molecule come in strictly under it? C/C=C/C[C@@H]1NC(=O)[C@H](CC(C)C)N2C(=O)[C@H](CC(C)[C@H]2OC)N(C)C(=O)[C@H](C)NC(=O)[C@H](Cc2ccc(OC(C)=O)c([N+](=O)[O-])c2)NC(=O)[C@H](CC(C)C)N(C)C(=O)[C@H](Cc2cn(C(C)(C)[C@H](O)CCl)c3ccccc23)NC1=O (stereo not given in full)
## Result 1 (yes)

## Task For this molecule, is MIC lower than 2 µM? C/C=C/C[C@@H]1NC(=O)[C@H](CC(C)C)N2C(=O)[C@H](CC(C)[C@H]2OCCC)N(C)C(=O)[C@H](C)NC(=O)[C@H](Cc2ccc(O)c([N+](=O)[O-])c2)NC(=O)[C@H](CC(C)C)N(C)C(=O)[C@H](Cc2cn(C(C)(C)[C@H](O)CCl)c3ccccc23)NC1=O (stereo not given in full)
## Result 0 (no)

## Task Determine if `C/C=C/C[C@@H]1NC(=O)[C@H](CC(C)C)N2C=C(C)C[C@@H](C2=O)N(C)C(=O)[C@H](C)NC(=O)[C@H](Cc2ccc(O)c(NC(=O)CCl)c2)NC(=O)[C@H](CC(C)C)N(C)C(=O)[C@H](Cc2cn(C(C)(C)[C@H](O)CCl)c3ccccc23)NC1=O` shows MIC strictly lower than 2 µM.
## Result 0 (no)

## Task Please indicate whether the reported MIC of `C/C=C/C[C@@H]1NC(=O)[C@H](CC(C)C)N2C(=O)[C@H](C[C@H](C)[C@H]2OCC)N(C)C(=O)[C@H](C)NC(=O)[C@H](Cc2ccc(O)c([N+](=O)[O-])c2)NC(=O)[C@H](CC(C)C)N(C)C(=O)[C@H](Cc2cn(C(C)(C)[C@H](O)CCl)c3ccccc23)NC1=O` is strictly below 2 µM.
## Result 1 (yes)

## Task Determine if C/C=C/C[C@@H]1NC(=O)[C@H](CC(C)C)N2C(=O)[C@H](CC(C)[C@H]2OC)N(C)C(=O)[C@H](C)NC(=O)[C@H](Cc2ccc(O)c([N+](=O)[O-])c2)NC(=O)[C@H](CC(C)C)N(C)C(=O)[C@H](Cc2cn(C(C)(C)[C@H](O)COC)c3ccccc23)NC1=O (stereo not given in full) shows MIC strictly lower than 2 µM.
## Result 1 (yes)

## Task Decide: MIC of `C/C=C/C[C@@H]1NC(=O)[C@H](CC(C)C)N2C(=O)[C@H](C[C@H](C)[C@@H]2OCCCC)N(C)C(=O)[C@H](C)NC(=O)[C@H](Cc2ccc(O)c([N+](=O)[O-])c2)NC(=O)[C@H](CC(C)C)N(C)C(=O)[C@H](Cc2cn(C(C)(C)[C@H](O)CCl)c3ccccc23)NC1=O` strictly below 2 µM?
## Result 0 (no)
